- system.tested: MBP-FoxP1dN (Mus musculus, UniProt P58462 326-579)
- Sequence: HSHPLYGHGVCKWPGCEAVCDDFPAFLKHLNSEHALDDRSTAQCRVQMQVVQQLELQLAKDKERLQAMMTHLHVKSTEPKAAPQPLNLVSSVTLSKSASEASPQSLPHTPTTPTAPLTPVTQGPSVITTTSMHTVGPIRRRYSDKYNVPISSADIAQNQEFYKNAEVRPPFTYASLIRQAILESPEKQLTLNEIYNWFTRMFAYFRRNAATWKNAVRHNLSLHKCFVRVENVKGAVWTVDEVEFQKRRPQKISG
- test: PD-seq (MBP pull-down with sequencing); 20 mM Tris-HCl pH 7.5, 100 mM NaCl, 1.5 mM MgCl2, 0.4 uM protein, 0.1 uM dsDNA library, 30 min, room temperature, amylose pull-down; high values mean tight binding
- condition.description: protein: recombinant; tags: His6-MBP; chain copies: 2; dsDNA, one strand shown
The full ranking holds about 16,000 sequences; the median of “rpm ratio (pull-down/input)” is about 0.94, and the highest 2% start at about 1.7. The full list was thinned out, with the highest values kept by preference.
assay.metric: binding signal

As a guide, the following entries are already answered.
GATGATTGTTCTCCCAGCTGATGAATTCGGTACATCGAGTAAACAAATTTTCCTAATCTTTCTGTTCAAGCGCCATCTAC    0.991 RPM ratio (pull-down/input)
GATGATTGTTCTCCCAGCTGATGAATTTACTAAGTCGAGTAAACAAATTTTCCTAATCTTTCTGTTCAAGCGCCATCTAC    1.29 RPM ratio (pull-down/input)
GATGATTGTTCTCCCAGCTGATGAATTGATTGTATCGAGTAAACAAATTTTCCTAATCTTTCTGTTCAAGCGCCATCTAC    1.54 RPM ratio (pull-down/input)
GATGATTGTTCTCCCAGCTGATGAATTCGTCTTGTCGAGTAAACAAATTTTCCTAATCTTTCTGTTCAAGCGCCATCTAC    0.827 RPM ratio (pull-down/input)
GATGATTGTTCTCCCAGCTGATGAATTCGACATATCGAGTAAACAAATTTTCCTAATCTTTCTGTTCAAGCGCCATCTAC    0.996 RPM ratio (pull-down/input)

Measured binding signal of GATGATTGTTCTCCCAGCTGATGAATTGGTGTTTTCGAGTAAACAAATTTTCCTAATCTTTCTGTTCAAGCGCCATCTAC : 2.65 RPM ratio (pull-down/input)

Measured binding signal of GATGATTGTTCTCCCAGCTGATGAATTTGGTGTTTCGAGTAAACAAATTTTCCTAATCTTTCTGTTCAAGCGCCATCTAC : 1.12 RPM ratio (pull-down/input)

Measured binding signal of GATGATTGTTCTCCCAGCTGATGAATTAGTGTTTTCGAGTAAACAAATTTTCCTAATCTTTCTGTTCAAGCGCCATCTAC : 2.42 RPM ratio (pull-down/input)

Measured binding signal of GATGATTGTTCTCCCAGCTGATGAATTTTTTTGATCGAGTAAACAAATTTTCCTAATCTTTCTGTTCAAGCGCCATCTAC : 0.955 RPM ratio (pull-down/input)

Measured binding signal of GATGATTGTTCTCCCAGCTGATGAATTCTATTACTCGAGTAAACAAATTTTCCTAATCTTTCTGTTCAAGCGCCATCTAC : 0.895 RPM ratio (pull-down/input)

Measured binding signal of GATGATTGTTCTCCCAGCTGATGAATTGTTTGGTTCGAGTAAACAAATTTTCCTAATCTTTCTGTTCAAGCGCCATCTAC : 1.81 RPM ratio (pull-down/input)

Measured binding signal of GATGATTGTTCTCCCAGCTGATGAATTGGTTGTTTCGAGTAAACAAATTTTCCTAATCTTTCTGTTCAAGCGCCATCTAC : 1.45 RPM ratio (pull-down/input)

Data origin: paper PMC12820563
